target: human nociceptin/orphanin FQ peptide (hNOP) receptor (Homo sapiens (Human), UniProt P41146); format: binding
READOUT LABEL: hNOP % inhibition at 1 μM

Entry under review: CN1CCN(c2ncc(N3CC4(CCC(c5ccccc5)(N(C)CC5CCOC5)CC4)NC3=O)cn2)CC1 (single isomer, unassigned; enantiomer 1) [SC_3324] . Reported hNOP % inhibition at 1 μM?
12%

# get_value(readout='hNOP % inhibition at 1 μM', item= CNC1(c2ccccc2)CCC2(CC1)CN(c1ccccc1C(N)=O)C(=O)N2 (stereo not shown) [SC_3119] )
22%

Consider the compound Cc1cc(C(F)(F)F)ncc1N1CC2(CCC(Cc3ccccc3)(N(C)C)CC2)NC1=O (stereo not shown) [SC_3215] and give its measured hNOP % inhibition at 1 μM.
0%

Given the compound CCN[C@]1(c2ccccc2)CC[C@]2(CC1)CN(c1cnc(C#N)nc1OC)C(=O)N2 [SC_3143] , what is its reported hNOP % inhibition at 1 μM?
0%

---

target: human mu-opioid peptide (hMOP) receptor (Homo sapiens (Human), UniProt P35372); test: Human mu-opioid peptide (hMOP) receptor binding assay (SPA, [3H]naloxone displacement)
Sequence (P35372 whole entry): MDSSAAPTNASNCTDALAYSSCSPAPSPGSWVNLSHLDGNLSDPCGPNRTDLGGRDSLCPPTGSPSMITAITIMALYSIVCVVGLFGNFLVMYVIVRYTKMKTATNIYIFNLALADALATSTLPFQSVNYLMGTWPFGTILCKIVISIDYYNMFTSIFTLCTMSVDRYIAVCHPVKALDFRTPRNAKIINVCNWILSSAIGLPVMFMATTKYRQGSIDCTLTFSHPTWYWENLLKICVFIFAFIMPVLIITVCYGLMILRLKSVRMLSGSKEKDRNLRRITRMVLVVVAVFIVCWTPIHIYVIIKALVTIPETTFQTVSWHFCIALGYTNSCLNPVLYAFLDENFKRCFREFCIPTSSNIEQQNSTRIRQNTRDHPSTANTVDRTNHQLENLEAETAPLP
READOUT LABEL: hMOP % inhibition at 1 μM

What measured hMOP % inhibition at 1 μM goes with CNC1(c2ccccc2)CCC2(CC1)CN(c1ccccc1C(N)=O)C(=O)N2 (stereo not shown) ?
10%

Which hMOP % inhibition at 1 μM is listed for CN(CC1CCOC1)[C@]1(c2ccccc2)CC[C@]2(CC1)CN(c1cnc(N3CCOCC3)nc1)C(=O)N2 (stereo partly shown) [SC_3305] ?
0%

Which hMOP % inhibition at 1 μM is listed for CN(C)C1(c2nc3ccccc3n2C)CCC2(CC1)CN(c1cnc(C(F)(F)F)nc1)C(=O)N2 (stereo not shown) ?
1%

Record request: hMOP % inhibition at 1 μM value, item CN(CC1CCOC1)[C@]1(c2ccccc2)CC[C@]2(CC1)CN(c1cnc(N3CCOCC3)nc1)C(=O)N2 (stereo partly shown) [SC_3304]
4%

---

target: human nociceptin/orphanin FQ peptide (hNOP) receptor (Homo sapiens (Human)); type: binding
Please note: Yes applies when hNOP % inhibition at 1 μM is 3% or greater, and No applies otherwise.

Test whether the compound CN(CC1CCOC1)[C@]1(c2ccccc2)CC[C@]2(CC1)CN(c1cnc(N3CCOCC3)nc1)C(=O)N2 (some centres unmarked) [SC_3304] records hNOP % inhibition at 1 μM of 3% or higher.
Yes

Quick check: does "CCN[C@]1(c2ccccc2)CC[C@@]2(CC1)CN(c1ccccc1C#N)C(=O)N2" have hNOP % inhibition at 1 μM greater than or equal to 3%?
No

Hello, I need to know if CN(C)C1(Cc2ccccc2)CCC2(CC1)CN(c1cnc(C(F)(F)F)nc1)C(=O)N2 (centres unmarked) has measured hNOP % inhibition at 1 μM not below 3%. Thanks!
Yes

Could you verify whether the entry CCNC1(c2ccccc2)CCC2(CC1)CN(c1ccc(C#N)cc1OC)C(=O)N2 (centres unmarked) shows hNOP % inhibition at 1 μM of no less than 3%?
No

Can "CN(C)[C@]1(Cc2ccccc2)CC[C@@]2(CC1)CN(c1cnc(N3CCOCC3)nc1)C(=O)N2" be said to have hNOP % inhibition at 1 μM at or above 3%?
Yes

Tell me whether hNOP % inhibition at 1 μM is at least 3% here: CN(C)C1(Cc2ccccc2)CCC2(CC1)CN(c1cnc(N3CCOCC3)nc1)C(=O)N2 (centres unmarked)
No
